Target System: recombinant mouse PGR-2 protein (Mus musculus, UniProt Q8VDQ1)
Construct: GST (N); made in house; host or cells: E. coli
Sequence (Q8VDQ1 whole entry): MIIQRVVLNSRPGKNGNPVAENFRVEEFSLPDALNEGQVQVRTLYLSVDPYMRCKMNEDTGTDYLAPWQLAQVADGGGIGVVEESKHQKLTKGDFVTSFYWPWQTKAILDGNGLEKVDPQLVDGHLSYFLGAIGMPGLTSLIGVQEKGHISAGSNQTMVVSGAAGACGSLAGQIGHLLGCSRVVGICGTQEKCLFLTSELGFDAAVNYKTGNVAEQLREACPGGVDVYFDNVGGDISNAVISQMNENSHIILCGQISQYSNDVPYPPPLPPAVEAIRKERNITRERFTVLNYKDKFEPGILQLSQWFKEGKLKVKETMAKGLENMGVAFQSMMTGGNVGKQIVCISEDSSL
Procedure Text: Substrate specificity and kinetics of recombinant PGR-2 (NADPH oxidation, absorbance at 490 nm)
Assay type: biochemical
Condition Info: 15-keto PGE2 replaced with the test substrate; 0.5 mM NADPH, 37° C., 10 minutes
Measure Name: specific activity as substrate of PGR-2

> print(dat)
                              smiles.string           test.result
1  CCCCCC(=O)/C=C/[C@H]1[C@H](O)CC(=O)[C@@H]1CCCCCCC(=O)O  reacted specifically
2  CCCCCC(=O)/C=C/[C@@H]1[C@@H](C/C=C\CCCC(=O)O)[C@@H](O)C[C@H]1O  reacted specifically
3  CCCCCC(=O)/C=C/[C@@H]1[C@@H](CCCCCCC(=O)O)[C@@H](O)C[C@H]1O  reacted specifically

###

Tested on: 15-keto prostaglandin-Δ^13-reductase
Procedure Text: 15-keto prostaglandin-Δ^13-reductase inhibition assay
Format: biochemical
Condition Info: different concentrations of inhibitor, incubated 2 hours at 37° C.
Measure Name: inhibition of 15-keto prostaglandin-Δ^13-reductase activity

> print(dat)
                                    molecule  test.result
 1  O=c1c(O)c(-c2ccc(O)cc2)oc2cc(O)cc(O)c12 [kaempferol]    inhibited
 2  O=C(/C=C/c1ccccc1O)c1cc(O)ccc1O [2,2′,5′-trihydroxychalcone]    inhibited
 3  O=c1oc2ccccc2c(O)c1Cc1c(O)c2ccccc2oc1=O [3,3′-methylene-bis(4-hydroxycoumarin)]    inhibited
 4  O=C(/C=C/c1ccccc1O)c1ccc(O)cc1O [2,2′,4′-trihydroxychalcone]    inhibited
 5  O=C(/C=C/c1cccc(O)c1)c1ccccc1O [3,2′-dihydroxychalcone]    inhibited
 6  O.O.O=c1c(O)c(-c2ccc(O)c(O)c2)oc2cc(O)cc(O)c12 [quercetin dehydrate]    inhibited
 7  O=C(/C=C/c1ccccc1O)c1ccccc1O [2,2′-dihydroxychalcone]    inhibited
 8  O=c1cc(-c2ccc(O)c(O)c2)oc2cc(O)cc(O)c12 [luteolin]    inhibited
 9  COc1cc(O)c(C(=O)/C=C/c2cc(Br)ccc2O)c(OC)c1    inhibited
10  O=C(/C=C/c1ccccc1)c1ccc(O)cc1O [2′,4′-dihydroxychalcone]    inhibited
11  O=C(/C=C/c1ccc(O)cc1)c1ccccc1O [4,2′-dihydroxychalcone]    inhibited
12  O=c1cc(-c2ccccc2)oc2cc(O)cc(O)c12 [5,7-dihydroxyflavone]    inhibited
13  CC(=O)CC(c1ccccc1)c1c(O)c2ccccc2oc1=O (stereo not drawn) [warfarin, reference compound]    inhibited
14  O=c1c(O)c(-c2cccc(O)c2)oc2ccccc12 [3,3′-dihydroxyflavone]    inhibited
15   O=c1cc(O)c2ccccc2o1 [4-hydroxycoumarin]    inhibited
